Biological target: murine IL-21R expressed on cells (murine, UniProt Q9JHX3 20-529)
Sequence (Q9JHX3 20-529 limits assumed): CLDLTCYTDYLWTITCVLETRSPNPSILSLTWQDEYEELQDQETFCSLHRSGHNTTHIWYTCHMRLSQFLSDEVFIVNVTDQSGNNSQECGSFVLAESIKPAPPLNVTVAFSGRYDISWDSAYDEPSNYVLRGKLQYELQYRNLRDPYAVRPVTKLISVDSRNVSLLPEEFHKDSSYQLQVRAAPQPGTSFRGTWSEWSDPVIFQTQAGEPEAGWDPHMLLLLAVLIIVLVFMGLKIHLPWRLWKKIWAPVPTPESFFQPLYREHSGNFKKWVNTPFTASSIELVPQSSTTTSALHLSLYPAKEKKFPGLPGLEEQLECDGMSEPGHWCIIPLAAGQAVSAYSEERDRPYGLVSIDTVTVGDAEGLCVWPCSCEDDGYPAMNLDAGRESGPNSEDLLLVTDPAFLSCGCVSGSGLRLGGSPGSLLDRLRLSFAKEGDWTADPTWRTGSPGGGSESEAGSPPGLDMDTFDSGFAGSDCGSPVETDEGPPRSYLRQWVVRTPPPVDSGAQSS
Assay: cell-based or functional assay
Task for the reader: assign each of the following binders its reported Neutralization of murine primary T cell Proliferation IC50.
One number for each entry, in nM.

Dear colleague, could you please provide Neutralization of murine primary T cell Proliferation IC50 for the binders listed below?
1. AbS (antibody, V domains shown, CDR3 graft, residue limits derived as for m29; also called VHP/VL6; VHPTM/VL6) VH: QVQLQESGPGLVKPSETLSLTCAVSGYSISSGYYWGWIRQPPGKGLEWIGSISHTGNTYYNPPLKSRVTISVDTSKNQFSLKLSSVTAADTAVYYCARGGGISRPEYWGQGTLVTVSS VL: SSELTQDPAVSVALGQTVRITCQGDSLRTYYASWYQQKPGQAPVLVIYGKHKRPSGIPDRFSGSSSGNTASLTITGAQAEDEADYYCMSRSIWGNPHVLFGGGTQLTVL
2. AbT (antibody, human IgG1, V domains shown, CDR3 graft, residue limits derived as for m29; also called VHP/VL9; VHPTM/VL9) VH: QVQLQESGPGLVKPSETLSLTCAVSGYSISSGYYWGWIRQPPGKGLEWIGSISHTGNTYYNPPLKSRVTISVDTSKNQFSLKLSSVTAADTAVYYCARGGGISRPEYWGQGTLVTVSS VL: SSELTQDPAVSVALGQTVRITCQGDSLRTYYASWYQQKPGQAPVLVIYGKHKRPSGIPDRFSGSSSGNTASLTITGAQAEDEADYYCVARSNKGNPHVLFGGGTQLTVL
3. AbU (antibody, human IgG1, V domains shown, CDR3 graft, residue limits derived as for m29; also called VHP/VL25; VHPTM/VL25) VH: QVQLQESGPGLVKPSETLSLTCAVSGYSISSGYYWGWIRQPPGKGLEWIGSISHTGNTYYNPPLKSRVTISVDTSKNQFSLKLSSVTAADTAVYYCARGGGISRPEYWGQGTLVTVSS VL: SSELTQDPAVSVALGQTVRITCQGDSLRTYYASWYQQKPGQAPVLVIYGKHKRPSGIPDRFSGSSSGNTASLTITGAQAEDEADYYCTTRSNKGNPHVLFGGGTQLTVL
4. AbO (antibody, human IgG1, V domains shown, CDR3 graft, residue limits derived as for m29; also called VHP/VL16; VHPTM/VL16) VH: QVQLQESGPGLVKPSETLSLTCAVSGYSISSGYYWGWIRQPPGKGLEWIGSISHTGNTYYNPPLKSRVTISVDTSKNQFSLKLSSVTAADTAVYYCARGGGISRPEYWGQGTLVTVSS VL: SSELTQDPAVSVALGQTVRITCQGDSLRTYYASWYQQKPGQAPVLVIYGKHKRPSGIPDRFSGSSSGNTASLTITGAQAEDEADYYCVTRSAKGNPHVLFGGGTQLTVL
5. AbQ (antibody, human IgG1, V domains shown, CDR3 graft, residue limits derived as for m29; also called VH3/VL2; VH3DM/VL2) VH: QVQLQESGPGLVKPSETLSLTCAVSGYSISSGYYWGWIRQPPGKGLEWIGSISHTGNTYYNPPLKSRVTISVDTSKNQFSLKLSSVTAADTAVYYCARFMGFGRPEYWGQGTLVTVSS VL: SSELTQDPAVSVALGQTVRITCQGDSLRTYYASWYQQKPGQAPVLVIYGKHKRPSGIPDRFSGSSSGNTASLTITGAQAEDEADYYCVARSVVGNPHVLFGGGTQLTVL

Solution:
0.02
0.61
1.79
4.92
0.85

Problem: Would you kindly share the measured Neutralization of murine primary T cell Proliferation IC50 for AbR (antibody, human IgG1, V domains shown, CDR3 graft, residue limits derived as for m29; also called VH3/VL18; VH3DM/VL18) VH: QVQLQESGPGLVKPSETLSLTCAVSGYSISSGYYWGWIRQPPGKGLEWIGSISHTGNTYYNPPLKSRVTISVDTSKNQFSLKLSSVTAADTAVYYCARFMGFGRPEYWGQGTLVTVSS VL: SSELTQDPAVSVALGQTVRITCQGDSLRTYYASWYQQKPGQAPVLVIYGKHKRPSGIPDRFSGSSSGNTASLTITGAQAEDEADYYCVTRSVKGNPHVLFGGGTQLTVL ?
Solution: 0.13
